Assignment: determine reported EC50 for the given compounds.
- assayed_target: 5-HT3 receptors (Mus musculus, UniProt P23979)
- Sequence (P23979 24-489): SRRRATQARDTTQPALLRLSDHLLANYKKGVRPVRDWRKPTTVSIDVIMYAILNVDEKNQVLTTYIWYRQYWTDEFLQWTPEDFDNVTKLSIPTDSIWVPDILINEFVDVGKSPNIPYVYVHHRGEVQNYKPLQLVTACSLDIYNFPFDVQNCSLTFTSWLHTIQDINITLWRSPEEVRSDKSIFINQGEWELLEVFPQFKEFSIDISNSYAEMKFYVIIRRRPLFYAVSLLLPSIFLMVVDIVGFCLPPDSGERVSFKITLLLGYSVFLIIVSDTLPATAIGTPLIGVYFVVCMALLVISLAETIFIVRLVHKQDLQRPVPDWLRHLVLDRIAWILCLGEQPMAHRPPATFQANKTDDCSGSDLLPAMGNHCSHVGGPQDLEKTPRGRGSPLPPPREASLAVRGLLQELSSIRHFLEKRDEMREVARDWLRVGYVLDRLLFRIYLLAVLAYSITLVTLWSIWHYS
- assay_comment: Accumulation of 14C-guanidinium in NG 108-15 cells
Give the value in µM but do not write µM after it.

Any idea what EC50 came out for Fc1ccc(CN2CCN(c3nc4cc(Cl)ccc4n4cccc34)CC2)cc1 [Example 4] on 5-HT3 receptors (Mus musculus, UniProt P23979)?
0.1

Proceed to c1ccc(CN2CCN(c3nc4cccnc4n4cccc34)CC2)cc1 [Example 11]
0.03

And the next one, Clc1ccc2c(c1)nc(N1CCN(Cc3ccccc3)CC1)c1cccn12 [Example 3] ?
0.05
